Test system: Nakaseomyces glabratus
Assay: Antifungal activity against polyene-resistant Candida glabrata by broth microdilution assay
Type: functional, organism-based
IC50 for assorted molecules
Property measured: IC50 (µg/mL)

1. Oc1cc2c(cc1O)[C@@H]1Oc3cc4c(cc3[C@@H]1CO2)OCO4: 32
2. C[C@@H]1[C@H](O)[C@@H](C)/C=C/C=C/C=C/C=C/C=C/C=C/C=C/[C@H](O[C@@H]2O[C@H](C)[C@@H](O)[C@H](N)[C@@H]2O)C[C@@H]2O[C@](O)(C[C@@H](O)C[C@@H](O)[C@H](O)CC[C@@H](O)C[C@@H](O)CC(=O)O[C@H]1C)C[C@H](O)[C@H]2C(=O)O [AMPHOTERICIN B]: 4

Entry source: ChEMBL document CHEMBL1148991
